Data provenance: patent US12624173B2

- experiment: Granisetron distribution in brain and plasma 1 h after IN and IV administration
- condition_details: rat, brain, iv, 36 μg/kg

compound: CN1C2CCCC1CC(NC(=O)c1nn(C)c3ccccc13)C2 (stereo not shown)
concentration at 1 h, ng/g: 59.7
